Where do these numbers come from? They come from paper PMC7915026.

# Tested on: B. subtilis ATCC 6633
# PROCEDURE DETAILS: MIC and MBC determination
# Type: cell-based
# CONDITION INFO: Bacillus subtilis, ATCC6633; B. subtilis; read-out: MIC
Threshold-based label: MIC under 20 µM gives true, MIC not under 20 µM gives false.

| GIVEN SMILES | CLASS LABEL |
| --- | --- |
| N=C(N)NS(=O)(=O)c1ccc(NC(=O)c2cc3ccccc3oc2=N)cc1 | true |
| COc1ccc(/C=C(\C#N)C(=O)Nc2ccc(S(=O)(=O)NC(=N)N)cc2)cc1O | true |
| N#CC(=Cc1ccc(Cl)cc1)C(=O)Nc1ccc(S(=O)(=O)NC(=N)N)cc1 | false |
| Cc1cc(C)n(-c2ccc(S(=O)(=O)NC(=N)N)cc2)c(=O)c1C#N | true |

Below 20 µM on MIC? Entry N#Cc1c(-c2ccc(Cl)cc2)c(C#N)c(=O)n(-c2ccc(S(=O)(=O)NC(=N)N)cc2)c1N true

====

# Tested on: spleen and thymus
# PROCEDURE DETAILS: In vivo immunomodulation: immune organ weight and indexes
# CONDITION INFO: mice
# Source text: Both the spleen and thymus have important antibacterial and fungal immune organ responses, and any change in weight, and indexes can reflect the level of immune regulation. Additionally, the relative spleen and thymus indexes are important indices for nonspecific immunity and potential immunomodulatory compounds that increase the spleen and thymus weight. This increase is due to immune cells’ stimulation in the spleen and thymus. […]
Provide the reported Thymus index of each item.
Give bare numbers, in mg/g.

Use these answered entries as a reference point.
| MOLECULE | MEASUREMENT TARGET | NUMERIC RESULT |
| --- | --- | --- |
| O=C1O[C@H]([C@@H](O)CO)C(O)=C1O [Vitamin C, vitamin C, reference compound] | spleen and thymus | 0.633 |
| COc1ccc(/C=C(\C#N)C(=O)Nc2ccc(S(=O)(=O)NC(=N)N)cc2)cc1O [Compound 2d] | spleen and thymus | 0.532 |
| N=C(N)NS(=O)(=O)c1ccc(NC(=O)c2cc3ccccc3oc2=N)cc1 [Compound 11] | spleen and thymus | 0.455 |

Kindly state the measured Thymus index obtained for Cc1cc(C)n(-c2ccc(S(=O)(=O)NC(=N)N)cc2)c(=O)c1C#N [Compound 8] with spleen and thymus. 0.537

====

# System: C. albicans (ATCC 10231)
# PROCEDURE DETAILS: MIC and MFC determination
# Assay type: cell-based
# CONDITION INFO: Candida albicans, ATCC10231, read-out: MIC
ASSAY ENDPOINT: MIC (µM)
One number for each entry, in µM.

| COMPOUND | MIC [µM] |
| --- | --- |
| COc1ccc(/C=C(\C#N)C(=O)Nc2ccc(S(=O)(=O)NC(=N)N)cc2)cc1O | 18.8 |
| C[C@@H]1[C@H](O)[C@@H](C)/C=C/C=C/C=C/C=C/C=C/C=C/C=C/[C@H](O[C@@H]2O[C@H](C)[C@@H](O)[C@H](N)[C@@H]2O)C[C@@H]2O[C@](O)(C[C@@H](O)C[C@@H](O)[C@H](O)CC[C@@H](O)C[C@@H](O)CC(=O)O[C@H]1C)C[C@H](O)[C@H]2C(=O)O [Amphotericin B, amphotericin B, reference compound] | 16.8 |
| COc1ccc(/C=C(\C#N)C(=O)Nc2ccc(S(=O)(=O)NC(=N)N)cc2)cc1 | 78.2 |
| N#Cc1c(-c2ccc(Cl)cc2)c(C#N)c(=O)n(-c2ccc(S(=O)(=O)NC(=N)N)cc2)c1N | 16.7 |
| Cc1cc(C)n(-c2ccc(S(=O)(=O)NC(=N)N)cc2)c(=O)c1C#N | 45.2 |
| N=C(N)NS(=O)(=O)c1ccc(NC(=O)c2cc3ccccc3oc2=N)cc1 | 24 |

Now turn to the next compound.
Kindly state the measured MIC obtained for N#CC(=Cc1ccc(Cl)cc1)C(=O)Nc1ccc(S(=O)(=O)NC(=N)N)cc1 with C. albicans (ATCC 10231). 77.4
